Ref: ChEMBL document CHEMBL1201862

# Tested on: 786-0
# experiment.notes: NCI tumour cell line growth inhibition, 48 h
Active and inactive are the calls of the source. Cut-off read from the data, not from the text of the source: active = GI50 up to about 1.1 µM and inactive = higher.
Allowed answers: TRUE for active, FALSE for inactive

| compound | tested.system | assigned.label |
| --- | --- | --- |
| Nc1c(C(=O)Nc2ccccc2)[n+]([O-])c2ccccc2[n+]1[O-] | 786-0 | FALSE |
| OC1NC2CC3NC(O)C(O)NC3CC2NC1O (stereo unspecified) | 786-0 | FALSE |
| Cc1cc(=O)oc2cc(OCc3nc4ccccc4c(=O)n3-c3ccccc3)ccc12 | 786-0 | FALSE |
| O=C1Nc2ccccc2/C1=N/NC(=O)C(O)(c1ccccc1)c1ccccc1 | 786-0 | FALSE |
| C[N+]1(CCCl)CC[N+](C)(CCCl)CC1 (stereo unspecified) | 786-0 | FALSE |
| O=C(Nc1noc(-c2ccccc2)n1)c1ccccc1CNc1noc(-c2ccccc2)n1 | 786-0 | FALSE |
| CNC(C#N)c1ccc(OC)cc1 (stereo unspecified) | 786-0 | FALSE |
| Nc1ncnc2c1ncn2COC/C=C/I | 786-0 | FALSE |
| CC(=O)NC1C(OCc2ccccc2)OC(CO)C(O)C1OCC(=O)N[C@@H](C)C(=O)N[C@H](CCC(=O)NCCCCNc1c2ccccc2nc2cccc([N+](=O)[O-])c12)C(N)=O (stereo partly specified) | 786-0 | TRUE |
| CC(=O)OCC1OC(O[C@@H]2C[C@H]3C(C)(C)[C@H](OC(C)=O)CC[C@]3(C)[C@H]3CC[C@]4(C)C(=CC[C@H]4[C@@H](C)C[C@@H](O)[C@H](O)C(C)(C)O)[C@@]32C)C(O)C(O)C1O (stereo partly specified) | 786-0 | FALSE |

What call does the record list for CCCCN(CCCC)C1=Nc2ccccc2-n2c(nnc2C(=O)OCC)C1 ?
FALSE

What call does the record list for O=C(O)CC(Cc1ccc2c(c1)OCO2)C(=O)O (stereo unspecified) ?
FALSE
